- Test system: Bcap37
- Method notes: Antiproliferative activity against human Bcap37 cells after 72 hrs by MTT assay
- Type: functional, cell-based
- Measurement conditions: Bcap37, 72 h, read-out: IC50
Quantity kind: IC50 (µM)
Output spec: scalar in µM, unitless text.

So, CCCCC(CC)C(=O)N1CCN(CCOC(=O)[C@]23CC[C@@H](C)[C@H](C)[C@H]2C2=CC[C@@H]4[C@@]5(C)CC[C@H](O)C(C)(C)[C@@H]5CC[C@@]4(C)[C@]2(C)CC3)CC1 (some centres undefined) ? Its IC50 was 4.16

# IC50 (compound: `C[C@H]1[C@H](C)CC[C@]2(C(=O)OCCN3CCN(C(=O)/C=C/c4ccccc4)CC3)CC[C@]3(C)C(=CC[C@@H]4[C@@]5(C)CC[C@H](O)C(C)(C)[C@@H]5CC[C@]43C)[C@H]12` ) is 9.22

Measured IC50, `C[C@H]1[C@H](C)CC[C@]2(C(=O)OCCN3CCN(C(=O)c4c(Cl)cccc4Cl)CC3)CC[C@]3(C)C(=CC[C@@H]4[C@@]5(C)CC[C@H](O)C(C)(C)[C@@H]5CC[C@]43C)[C@H]12` : 9.24

The reported IC50 of the compound `CC(C)c1ccc(C(=O)N2CCN(CCOC(=O)[C@]34CC[C@@H](C)[C@H](C)[C@H]3C3=CC[C@@H]5[C@@]6(C)CC[C@H](O)C(C)(C)[C@@H]6CC[C@@]5(C)[C@]3(C)CC4)CC2)cc1` was 11.8

Notebook: `C[C@H]1[C@H](C)CC[C@]2(C(=O)OCCN3CCNCC3)CC[C@]3(C)C(=CC[C@@H]4[C@@]5(C)CC[C@H](O)C(C)(C)[C@@H]5CC[C@]43C)[C@H]12` , IC50 read as 7.5

Lab book: IC50 of `COc1ccc(C(=O)N2CCN(CCOC(=O)[C@]34CC[C@@H](C)[C@H](C)[C@H]3C3=CC[C@@H]5[C@@]6(C)CC[C@H](O)C(C)(C)[C@@H]6CC[C@@]5(C)[C@]3(C)CC4)CC2)cc1OC` noted as 11.1

The recorded IC50 for `C[C@H]1[C@H](C)CC[C@]2(C(=O)OCCN3CCN(C(=O)c4ccccc4C(F)(F)F)CC3)CC[C@]3(C)C(=CC[C@@H]4[C@@]5(C)CC[C@H](O)C(C)(C)[C@@H]5CC[C@]43C)[C@H]12` is 10.9

Summary for this compound, `C[C@H]1[C@H](C)CC[C@]2(C(=O)O)CC[C@]3(C)C(=CC[C@@H]4[C@@]5(C)CC[C@H](O)C(C)(C)[C@@H]5CC[C@]43C)[C@H]12` : IC50 is 28.7

// sample `C[C@H]1[C@H](C)CC[C@]2(C(=O)OCCN3CCN(C(=O)c4c(F)cccc4Cl)CC3)CC[C@]3(C)C(=CC[C@@H]4[C@@]5(C)CC[C@H](O)C(C)(C)[C@@H]5CC[C@]43C)[C@H]12` , its IC50 was 4.32

---

- Method notes: Growth inhibition of mouse NIH/3T3 cells at 10 uM after 72 hrs by MTT assay
- Format: cell-based, NIH3T3
- Measurement conditions: read-out: GI
Quantity kind: inhibition at 72 h, 10 µM (%)
Respond numerically; units are % and should not be typed.

Entry `C[C@H]1[C@H](C)CC[C@]2(C(=O)OCCN3CCN(C(=O)c4ccc([N+](=O)[O-])cc4)CC3)CC[C@]3(C)C(=CC[C@@H]4[C@@]5(C)CC[C@H](O)C(C)(C)[C@@H]5CC[C@]43C)[C@H]12` , inhibition at 72 h, 10 µM reported as 65.4

Per the records, this molecule ( `C[C@H]1[C@H](C)CC[C@]2(C(=O)OCCN3CCN(C(=O)c4ccccc4Cl)CC3)CC[C@]3(C)C(=CC[C@@H]4[C@@]5(C)CC[C@H](O)C(C)(C)[C@@H]5CC[C@]43C)[C@H]12` ) has inhibition at 72 h, 10 µM equal to 29.8

Sample C[C@H]1[C@H](C)CC[C@]2(C(=O)O)CC[C@]3(C)C(=CC[C@@H]4[C@@]5(C)CC[C@H](O)C(C)(C)[C@@H]5CC[C@]43C)[C@H]12 [URSOLIC ACID] ; inhibition at 72 h, 10 µM observed: 14

inhibition at 72 h, 10 µM reading for `C[C@H]1[C@H](C)CC[C@]2(C(=O)OCCN3CCN(C(=O)c4ccnc(Cl)c4)CC3)CC[C@]3(C)C(=CC[C@@H]4[C@@]5(C)CC[C@H](O)C(C)(C)[C@@H]5CC[C@]43C)[C@H]12` : 44.3

Sample `C[C@H]1[C@H](C)CC[C@]2(C(=O)OCCN3CCN(C(=O)/C=C/c4ccccc4)CC3)CC[C@]3(C)C(=CC[C@@H]4[C@@]5(C)CC[C@H](O)C(C)(C)[C@@H]5CC[C@]43C)[C@H]12` ; inhibition at 72 h, 10 µM observed: 39

response.value for COc1cccc2c1C(=O)c1c(O)c3c(c(O)c1C2=O)C[C@@](O)(C(=O)CO)C[C@@H]3O[C@H]1C[C@H](N)[C@H](O)[C@H](C)O1 [DOXORUBICIN] (field: inhibition at 72 h, 10 µM) = 99.2

Measured inhibition at 72 h, 10 µM, `COc1ccc(C(=O)N2CCN(CCOC(=O)[C@]34CC[C@@H](C)[C@H](C)[C@H]3C3=CC[C@@H]5[C@@]6(C)CC[C@H](O)C(C)(C)[C@@H]6CC[C@@]5(C)[C@]3(C)CC4)CC2)cc1OC` : 73.1

Lab note: measured inhibition at 72 h, 10 µM of `C[C@H]1[C@H](C)CC[C@]2(C(=O)OCCN3CCN(C(=O)c4ccccc4)CC3)CC[C@]3(C)C(=CC[C@@H]4[C@@]5(C)CC[C@H](O)C(C)(C)[C@@H]5CC[C@]43C)[C@H]12` was 19.1

The molecule identified as `C[C@H]1[C@H](C)CC[C@]2(C(=O)OCCN3CCN(C(=O)c4ccccc4C(F)(F)F)CC3)CC[C@]3(C)C(=CC[C@@H]4[C@@]5(C)CC[C@H](O)C(C)(C)[C@@H]5CC[C@]43C)[C@H]12` registered its inhibition at 72 h, 10 µM at 16.2

Consider CCCCC(CC)C(=O)N1CCN(CCOC(=O)[C@]23CC[C@@H](C)[C@H](C)[C@H]2C2=CC[C@@H]4[C@@]5(C)CC[C@H](O)C(C)(C)[C@@H]5CC[C@@]4(C)[C@]2(C)CC3)CC1 (stereo not given in full) . Its measured inhibition at 72 h, 10 µM is 54.5

// data source = ChEMBL document CHEMBL2150939
